# Tested on: COR-L23
# test_protocol: relative viability (nuclei count vs DMSO), 5 days (fraction); higher = more cells survive
# condition_info: first compound 6.325 µM
quantity_measured: relative viability
Enter a number only.

Give relative viability (COR-L23) of the following molecule: COCC1(CO)C(=O)C2CCN1CC2 (stereo not drawn) [PRIMA-1MET] + COc1cc2c(Oc3ccc(NC(=O)C4(C(=O)Nc5ccc(F)cc5)CC4)cc3F)ccnc2cc1OCCCN1CCOCC1 [Foretinib] (partner 0.25 µM)
1.06

And what about the molecule COCC1(CO)C(=O)C2CCN1CC2 (stereo not drawn) [PRIMA-1MET] + C[C@@H](Oc1cc(-c2cnn(C3CCNCC3)c2)cnc1N)c1c(Cl)ccc(F)c1Cl [Crizotinib] (partner 1 µM) ?
0.565

// query: COCC1(CO)C(=O)C2CCN1CC2 (stereo not drawn) [PRIMA-1MET] + CC(C)C[C@H](NC(=O)[C@H](Cc1ccccc1)NC(=O)c1cnccn1)B(O)O [Bortezomib] (partner 0.002 µM)
1.05
